Each recorded value in this set is attributed to ChEMBL document CHEMBL1221379.

Target: Cannabinoid receptor 1 (Homo sapiens)
Sequence (P21554 whole entry): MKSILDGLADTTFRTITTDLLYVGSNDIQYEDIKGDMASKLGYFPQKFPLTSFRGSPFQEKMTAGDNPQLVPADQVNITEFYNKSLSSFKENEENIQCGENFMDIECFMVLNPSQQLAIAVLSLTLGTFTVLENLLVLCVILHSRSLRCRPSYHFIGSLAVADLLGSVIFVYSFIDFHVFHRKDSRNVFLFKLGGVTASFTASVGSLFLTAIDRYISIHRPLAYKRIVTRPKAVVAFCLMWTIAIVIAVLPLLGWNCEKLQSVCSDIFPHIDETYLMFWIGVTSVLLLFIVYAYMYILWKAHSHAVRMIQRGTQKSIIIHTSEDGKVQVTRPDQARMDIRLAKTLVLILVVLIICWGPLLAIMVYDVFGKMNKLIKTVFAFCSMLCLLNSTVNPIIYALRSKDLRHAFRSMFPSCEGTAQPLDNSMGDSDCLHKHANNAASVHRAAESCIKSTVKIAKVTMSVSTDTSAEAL
Assay: Antagonist activity at human cannabinoid CB1 receptor expressed in CHO cells by luciferase reporter gene assay
measured_endpoint: log10 of IC50 (log10 of the value in nM)

{"columns": ["mol_smiles", "log10 of IC50"],
 "data": [
  ["Cn1cc(Cc2cccc(-c3cccc4c3OCO4)c2)c2cc(NC(=O)C(C)(C)C)ccc21", 1.57],
  ["COc1cc(F)ccc1-c1cccc(Cn2cnc3ccc(NC(=O)C(C)(C)C)cc32)n1", 1.86],
  ["COc1ccccc1-c1cccc(Cn2cnc3ccc(C(=O)NCc4cccc(F)c4)cc32)c1", 2.02],
  ["CC(C)(O)CC(=O)Nc1ccc2ccn(Cc3cccc(-c4cccc5c4OCO5)n3)c2c1", 0.48],
  ["COc1cc(F)ccc1-c1cccc(Cn2ccc3ccc(NC(=O)C(C)(C)CO)cc32)n1", 1.65]
]}

###

Experiment: Clearance in Wistar rat at 1 mg/kg, iv
Type: ADME, organism-based
Parameters: dose 1 mg/kg, route intravenous
Conditions: in vivo
measured_endpoint: clearance (mL/min/kg)

{"columns": ["mol_smiles", "measured_endpoint", "numeric_readout"],
 "data": [
  ["Cn1cc(Cc2cccc(-c3cccc4c3OCO4)n2)c2cc(NC(=O)CC(C)(C)O)ccc21", "clearance", 19]
]}

###

This listing pairs compounds with measured solubility.
Assay: Aqueous solubility of the compound
Assay type: physicochemical
Conditions: buffer

{"columns": ["mol_smiles", "relation_operator", "solubility / µg/mL"],
 "data": [
  ["CC(C)(O)CC(=O)Nc1ccc2ccn(Cc3cccc(-c4cccc5c4OCO5)n3)c2c1", "<", 1],
  ["Cn1cc(Cc2cccc(-c3cccc4c3OCO4)n2)c2cc(NC(=O)C(C)(C)CO)ccc21", "<", 1],
  ["COc1cc(F)ccc1-c1cccc(Cc2cn(C)c3ccc(NC(=O)C(C)(C)CO)cc23)n1", "=", 2],
  ["Cn1cc(Cc2cccc(-c3cccc4c3OCO4)n2)c2cc(NC(=O)CC(C)(C)O)ccc21", "=", 14.9],
  ["COc1cc(F)ccc1-c1cccc(Cc2cn(C)c3ccc(NC(=O)CC(C)(C)O)cc23)n1", "=", 10.6],
  ["Cn1cc(Cc2cccc(-c3cccc4c3OCO4)c2)c2cc(NC(=O)C(C)(C)C)ccc21", "<", 1],
  ["COc1cc(F)ccc1-c1cccc(Cn2ccc3ccc(NC(=O)C(C)(C)C)cc32)c1", "<", 1],
  ["COc1cc(F)ccc1-c1cccc(Cc2cn(C)c3ccc(NC(=O)C(C)(C)C)cc23)c1", "<", 1],
  ["COc1cc(F)ccc1-c1cccc(Cn2ccc3ccc(NC(=O)C(C)(C)CO)cc32)n1", "=", 11.7],
  ["COc1cc(F)ccc1-c1cccc(Cn2ccc3ccc(NC(=O)CC(C)(C)O)cc32)n1", "=", 17.9],
  ["CC(C)(C)C(=O)Nc1ccc2ccn(Cc3cccc(-c4cccc5c4OCO5)c3)c2c1", "<", 1],
  ["CC(C)(CO)C(=O)Nc1ccc2ccn(Cc3cccc(-c4cccc5c4OCO5)n3)c2c1", "=", 3.2]
]}

###

Assay: Volume of distribution at steady state in Wistar rat at 5 mg/kg, po and 1 mg/kg, iv
Type: ADME, organism-based
Conditions: in vivo, read-out: Vdss

{"columns": ["mol_smiles", "Vd, L/kg"],
 "data": [
  ["Cn1cc(Cc2cccc(-c3cccc4c3OCO4)n2)c2cc(NC(=O)CC(C)(C)O)ccc21", 1.2]
]}
